Please respond with reported selectivity ratio for every item in the list.
assay: Therapeutic index, ratio of TC50 for african green monkey Vero cells to IC50 for Japanese encephalitis virus Nakayama; format: cell-based; conditions: read-out: TI
Simply state the number, no unit and no words.

// query Input O=C1N[C@H]2[C@H](O)[C@H](O)[C@@H](O)[C@H](O)[C@@H]2c2cc3c(c(O)c21)OCO3 , output reported selectivity ratio.
// result 4.2

// query Consider the molecule O=C1N[C@H]2[C@H](O)[C@H](O)[C@@H](O)C[C@@H]2c2cc3c(cc21)OCO3 . State its measured selectivity ratio.
// result 5.6

// query Determine from records and report selectivity ratio for O=c1[nH]c2c(c3cc4c(c(O)c13)OCO4)C[C@H](O)[C@@H](O)[C@H]2O
// result 2.1

// query Fill in reported selectivity ratio for this entry: CC(=O)Oc1c2c(cc3c1C(=O)N[C@H]1[C@H](OC(C)=O)[C@H](OC(C)=O)[C@@H](OC(C)=O)C[C@@H]31)OCO2
// result 3.5

// query Consider the molecule O=C1N[C@H]2[C@H](O)[C@H](O)[C@@H](O)[C@H](O)[C@@H]2c2cc3c(cc21)OCO3 . State its measured selectivity ratio.
// result 5.9

// query Give a short answer stating reported selectivity ratio for O[C@H]1[C@H]2c3cc4c(cc3CN3CCC(=C[C@@H]1O)[C@H]23)OCO4 .
// result 8.2

// query Please give measured selectivity ratio of the following entry: O=C1N[C@H]2[C@H](O)[C@H](O)[C@@H](O)C[C@H]2c2cc3c(cc21)OCO3
// result 4.9

// query Hello, please tell me recorded selectivity ratio for this one: CC(=O)O[C@@H]1[C@@H](OC(C)=O)[C@H](OC(C)=O)[C@@H]2c3cc4c(cc3C(=O)N[C@H]2[C@@H]1OC(C)=O)OCO4
// result 2.8

// query Quick one: give measured selectivity ratio for O=C1N[C@@H]2C(=C[C@H](O)[C@@H](O)[C@H]2O)c2cc3c(cc21)OCO3
// result 4.9

// query In one line, give reported selectivity ratio of the entry CC(=O)O[C@@H]1[C@@H](O)[C@@H](O)[C@@H]2NC(=O)c3cc4c(cc3[C@H]2[C@H]1O)OCO4 [LYCORICIDINE MONOACETATE] .
// result 3.3

// query In one line, give reported selectivity ratio of the entry O=C1N[C@H]2[C@H](O)[C@H](O)[C@@H](O)C[C@H]2c2cc3c(c(O)c21)OCO3 .
// result 5.1

// query Given O=C1N[C@@H]2C(=C[C@H](O)[C@@H](O)[C@H]2O)c2cc3c(c(O)c21)OCO3 , respond with its selectivity ratio.
// result 4.08

// query Find the measured selectivity ratio of COc1cc2c(cc1O)[C@@H]1[C@H](O)[C@@H](O)C=C3CCN(C2)[C@H]31 and report it.
// result 5

// query Check the records and state selectivity ratio for O=C1N[C@H]2[C@H](O)[C@H](O)[C@@H](O)C[C@@H]2c2cc3c(c(O)c21)OCO3
// result 5.6

// query # return recorded selectivity ratio for input CC(=O)O[C@@H]1[C@@H](OC(C)=O)[C@H](O)[C@@H]2c3cc4c(cc3C(=O)N[C@H]2[C@@H]1OC(C)=O)OCO4
// result 3.6

// query Find the measured selectivity ratio of CO[C@@H]1C=C[C@@]23c4cc5c(cc4C(O)O[C@H]2CN(C)[C@H]3C1)OCO5 (stereo partly specified) and report it.
// result 3.8
